System: XF498
test.details: NCI tumour cell line growth inhibition, 48 h
Calls of active or inactive are those of the source. No stated cut-off is given here; in the data, active = GI50 up to about 1.1 µM and inactive = higher.
// one of true for active, false for inactive, no free text

1) Clc1ccc(/N=N/c2nc3ccccc3nc2/N=N/c2ccc(Cl)cc2Cl)c(Cl)c1 ... false
2) COc1ccc(/C=C2/C(=O)N(C(=O)c3ccccc3O)N=C2C)cc1 ... true
3) COC(=O)C1CC2(CC3=C1CCCC3)OCCO2 (configuration not stated) ... false
4) CC(C)NC1CCCCC2c3ccccc3C12O (configuration not stated) ... false
5) CCN(CC)c1ccc(/N=C2\C=C(Cl)C(=O)c3ncccc32)c(C)c1 ... false
6) COc1ccc(Nc2nc3cc(C(F)(F)F)ccc3nc2-c2ccccc2)cc1OC ... false
7) COc1ccc(C2=NN(C(C)=O)c3nc4ccccc4nc3O2)cc1 ... false
8) O=C(O)CC(NC(=O)CP(=O)(O)O)C(=O)O (configuration not stated) ... false
9) CCOC(=O)C1=C(c2ccccc2)N(C(C)=O)Cc2ccccc21 ... false
10) CN(C)/N=N/c1c[nH]nc1C(N)=O ... false

input: Just curious, what result did `O=C(/C=C\c1cccc2ccccc12)c1cccc2ccccc12` get here?
output: false

input: For this molecule, state the assay outcome: `Cc1c(C(=O)C/C(=N/NC(=O)c2ccccc2)C(=O)Nc2ccc(Cl)cc2)[n+]([O-])c2ccccc2[n+]1[O-]`
output: false

----------
Measured GI50, listed per entry.
Test system: OVCAR-5
test.details: NCI tumour cell line growth inhibition, 48 h
Calls of active or inactive are those of the source. No stated cut-off is given here; in the data, active = GI50 up to about 1.1 µM and inactive = higher.

input: Complete the entry with GI50 for `COc1cc(/C=C/C(=O)c2sc(NNC(C)=O)nc2C)ccc1O`
output: > 100 µM (inactive)

input: Tell me its GI50 given CC(C)(C)[Si](C)(C)Oc1ccc(C2CNC(=O)C23CCC(=O)N3Cc2ccccc2)cc1 (stereo not given) as the entry.
output: 17.5 µM (inactive)

input: Note down GI50 recorded for CCCC#CC(O)(C(=O)OC1CCN(C)CC1)C1CCCCC1 (stereo not given)
output: > 100 µM (inactive)

input: Give recorded GI50. `O=c1c(C(c2ccc(/C=C/c3ccccc3)cc2)c2c(O)oc3cc(O)ccc3c2=O)c(O)oc2cc(O)ccc12`
output: > 100 µM (inactive)

input: Tell me its GI50 given O=C(Nc1cc(Cl)c(Cl)cc1Cl)C(=O)C(C(=O)c1ccccc1)C1OC(=O)c2ccccc21 (stereo not given) as the entry.
output: > 100 µM (inactive)

input: For the compound `NC1=Nc2ncccc2C(=O)NN1` , give its reported GI50.
output: > 10 µM (inactive)

input: Please report the measured GI50 for `Cc1c(C(=O)C/C(=N/NC(=O)c2ccccc2)C(=O)Nc2ccc(Cl)cc2)[n+]([O-])c2ccccc2[n+]1[O-]`
output: 79.3 µM (inactive)

input: Please give the documented GI50 of `COc1ccc(/C=C2/C(=O)N(C(=O)c3ccccc3O)N=C2C)cc1`
output: 11.2 µM (inactive)

input: Please report the measured GI50 for COC(=O)C1CCC(=S)N1C(=O)OCc1ccccc1 (stereo not given)
output: > 100 µM (inactive)

input: Name the recorded GI50 of the item `O=C1c2cc(Br)ccc2-c2ccc3c4ccc5c6c(ccc(c7ccc1c2c73)c64)C(=O)c1cc(Br)ccc1-5` in your answer.
output: > 100 µM (inactive)

input: Using known records, supply GI50 for `Cn1c(-c2ccccc2)cc(-c2ccsc2)c1-c1ccsc1`
output: > 100 µM (inactive)

input: Identify GI50 associated with the compound `C/C(=N\O)c1cccc[n+]1Cc1ccccc1`
output: > 100 µM (inactive)

input: Determine its reported GI50: `c1ccc(C2=Nc3cccc4cccc(c34)N2)cc1`
output: 69.5 µM (inactive)
